Molecular target: α1A (rabbit urethra) (Oryctolagus cuniculus)
Construct: tested for α1A functional activity using rabbit urethra; from tissue; host or cells: rabbit urethra
Sequence (O02824 1-466): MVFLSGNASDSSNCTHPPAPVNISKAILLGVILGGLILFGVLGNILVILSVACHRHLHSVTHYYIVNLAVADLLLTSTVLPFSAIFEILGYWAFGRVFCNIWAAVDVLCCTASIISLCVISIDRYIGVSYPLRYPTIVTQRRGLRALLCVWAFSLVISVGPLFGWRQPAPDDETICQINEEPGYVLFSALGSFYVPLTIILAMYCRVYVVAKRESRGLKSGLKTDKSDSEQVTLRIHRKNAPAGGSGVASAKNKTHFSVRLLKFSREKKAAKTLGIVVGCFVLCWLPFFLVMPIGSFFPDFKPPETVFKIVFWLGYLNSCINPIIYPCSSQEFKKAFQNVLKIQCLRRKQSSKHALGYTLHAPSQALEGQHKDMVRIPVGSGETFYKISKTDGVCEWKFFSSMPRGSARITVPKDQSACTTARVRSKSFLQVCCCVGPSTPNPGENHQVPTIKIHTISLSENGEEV
Assay: Agonist contraction of smooth muscle tissue, rabbit urethra
Type: cell-based
Settings: rabbit urethra; read-out: Agonist Tissue Response (pD2) α1A (rab ureth) (converted)
Counter-ions that a name gives are not always drawn.
Readout Kind: log10 EC50 (log10 of the value in µM)
Friendly reminder: values = log10 of EC50, unit µM.

Study these solved cases before continuing.
Molecule	log10 EC50
CN(c1cccc2c1CCCC2c1c[nH]cn1)S(C)(=O)=O (stereo not drawn)	-0.16
CS(=O)(=O)Nc1cccc2c1CCCCC2c1c[nH]cn1 (stereo not drawn) [Example 38, maleate]	1.28
COc1ccc(NS(C)(=O)=O)c2c1C(c1c[nH]cn1)CCC2 (stereo not drawn)	1.19
CCS(=O)(=O)Nc1cccc2c1CCCC2c1c[nH]cn1.O=C(O)/C=C\C(=O)O (single isomer, unassigned; (+)) [Example 33, maleate]	-0.77
O=S(=O)(CC(F)(F)F)Nc1cccc(Cc2c[nH]cn2)c1 [Example 78, maleate]	0.95
O=C(Nc1cccc2c1CCCC2c1c[nH]cn1)C(F)(F)F (stereo not drawn)	-0.28
O=S(=O)(CC(F)(F)F)Nc1cccc2c1CCCC2c1c[nH]cn1 (single isomer, unassigned; (+)) [Example 36]	0.27
CS(=O)(=O)Nc1ccc(F)c(Cc2c[nH]cn2)c1 [Example 41, maleate]	1.13

[in] Form field: reported log10 EC50 of Cc1c(Cc2c[nH]cn2)cccc1NS(C)(=O)=O.O=C(O)/C=C\C(=O)O [Example 28, maleate]
[out] 0.75

[in] Param item = CS(=O)(=O)Nc1cccc(Cc2c[nH]cn2)c1.O=C(O)/C=C\C(=O)O [Example 21, maleate] ; retrieve measured log10 EC50.
[out] 0.27

[in] What does the data say about its log10 EC50? Entry: O=S(=O)(CC(F)(F)F)Nc1cccc2c1CCCC2c1c[nH]cn1 (single isomer, unassigned; (-)) [Example 35]
[out] 1.91

[in] // log10 EC50 lookup, key: CCS(=O)(=O)Nc1cccc(C(C)c2c[nH]cn2)c1 (stereo not drawn) [Example 37, maleate]
[out] 0.73

###

molecular target: α1d (rat receptor expressed in mouse fibroblasts) (Rattus norvegicus); construct: expressed in transfected cells; host or cells: mouse fibroblasts; assay: Radioligand binding with [3H]-prazosin, α1d; details: rat receptor expressed in mouse fibroblasts, [3H]-prazosin; read-out: Radioligand Binding Ki α1d (Rat)
# pKi listing for each entry below
Expect pKi as a plain number equal to -log10 of the molar concentration.

// solved cases for pKi follow
Compound	pKi
CN(c1cccc2c1CCCC2c1c[nH]cn1)S(C)(=O)=O (stereo not shown)	6.15
CS(=O)(=O)Nc1ccc(F)c2c1CCCC2c1c[nH]cn1.O=C(O)/C=C\C(=O)O (stereo not shown) [Example 44, maleate]	5.52

Now look at this entry.
[in] Consider the compound shown here: CCC(O)(c1cccc(NS(=O)(=O)CC)c1)c1c[nH]cn1 (stereo not shown) What is its recorded pKi?
[out] 5.63

###

Below, each entry is listed alongside its reported EC50.
target: α1B (rat spleen) (Rattus norvegicus); construct: α1B (rat spleen) and α1D (rat aorta) receptors; from tissue; host or cells: rat spleen; assay: Agonist contraction of smooth muscle tissue, rat spleen; assay type: cell-based; conditions: read-out: Agonist Tissue Response (pD2) α1B (rat spleen) (converted)
Sequence (P15823 whole entry): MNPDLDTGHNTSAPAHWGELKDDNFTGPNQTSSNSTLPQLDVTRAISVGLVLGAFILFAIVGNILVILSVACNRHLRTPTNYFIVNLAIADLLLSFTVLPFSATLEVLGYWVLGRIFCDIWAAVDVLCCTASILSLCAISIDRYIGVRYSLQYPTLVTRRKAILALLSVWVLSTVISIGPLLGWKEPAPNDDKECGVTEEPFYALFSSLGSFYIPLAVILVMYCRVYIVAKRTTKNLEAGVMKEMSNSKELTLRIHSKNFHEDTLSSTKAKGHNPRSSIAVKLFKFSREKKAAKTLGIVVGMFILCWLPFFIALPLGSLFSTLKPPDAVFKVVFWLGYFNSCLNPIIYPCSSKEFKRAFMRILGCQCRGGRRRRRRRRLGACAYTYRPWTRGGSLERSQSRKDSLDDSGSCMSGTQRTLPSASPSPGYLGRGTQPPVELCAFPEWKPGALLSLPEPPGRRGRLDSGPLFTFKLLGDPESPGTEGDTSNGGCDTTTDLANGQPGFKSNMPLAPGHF
Structures can show the parent of a compound that is named as a salt.
Express it in µM; write the number only.

Compound	EC50 (µM)
Cn1cnc(C2CCCc3c2ccc(O)c3NS(C)(=O)=O)c1 (stereo not shown) [Example 5, hydrochloride]	9.33

Next item in the queue.
[in] Form field: reported EC50 of COc1ccc2c(c1NS(C)(=O)=O)CCCC2c1c[nH]cn1 (stereo not shown) [Example 1, hydrochloride]
[out] 955

###

target: α1A (rat submaxillary gland) (Rattus norvegicus, UniProt P43140); construct: α1A (rat submaxillary gland); from tissue; host or cells: rat submaxillary gland; test: Radioligand binding with [3H]-prazosin, α1A; settings: rat submaxillary gland, [3H]-prazosin
Sequence (P43140 whole entry): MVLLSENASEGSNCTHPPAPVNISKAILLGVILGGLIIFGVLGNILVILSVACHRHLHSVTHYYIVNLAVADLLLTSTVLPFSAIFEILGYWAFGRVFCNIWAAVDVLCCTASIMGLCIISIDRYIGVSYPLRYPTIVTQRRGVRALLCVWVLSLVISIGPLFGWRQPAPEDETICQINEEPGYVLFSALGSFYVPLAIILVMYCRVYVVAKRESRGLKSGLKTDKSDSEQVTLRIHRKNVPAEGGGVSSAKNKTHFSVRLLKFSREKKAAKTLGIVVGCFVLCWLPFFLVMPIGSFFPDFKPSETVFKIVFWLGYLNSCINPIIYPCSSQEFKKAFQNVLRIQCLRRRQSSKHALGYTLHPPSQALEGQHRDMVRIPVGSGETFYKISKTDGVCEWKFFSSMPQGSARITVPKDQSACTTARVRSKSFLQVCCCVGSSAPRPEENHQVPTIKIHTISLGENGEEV
Counter-ions that a name gives are not always drawn.
Readout Kind: pKi
The read-out pKi is expressed as -log10 of concentration in moles per litre.

[in] State the recorded pKi for this entry: CCCCS(=O)(=O)Nc1cccc2c1CCCC2c1cnc[nH]1 (stereo not drawn)
[out] 5.38

[in] Requested read-out: pKi. Entry: CS(=O)(=O)Nc1ccc(Cl)c2c1CCCC2c1c[nH]cn1 (stereo not drawn) [Example 43, maleate]
[out] 6.35

[in] Which measured pKi value corresponds to CCS(=O)(=O)Nc1cccc2c1CCCC2c1c[nH]cn1.O=C(O)/C=C\C(=O)O (single isomer, unassigned; (-)) [Example 34, maleate] ?
[out] 5.89

[in] I have this compound here, CS(=O)(=O)Nc1cc(Cc2c[nH]cn2)ccc1O [Example 11, hydrochloride] , and I need its recorded pKi.
[out] 7.09

[in] Given Cc1ccccc1S(=O)(=O)Nc1cccc2c1CCCC2c1cnc[nH]1 (stereo not drawn) , state its recorded pKi.
[out] 5.35

[in] pKi for Cc1c(Cc2c[nH]cn2)cccc1NS(C)(=O)=O.O=C(O)/C=C\C(=O)O [Example 28, maleate] ?
[out] 6.28

###

molecular target: α1d (rat receptor expressed in mouse fibroblasts) (Rattus norvegicus); construct: expressed in transfected cells; host or cells: mouse fibroblasts; test: Radioligand binding with [3H]-prazosin, α1d; conditions: Radioligand Binding Ki α1d (Rat), rat receptor expressed in mouse fibroblasts, [3H]-prazosin
Structures can show the parent of a compound that is named as a salt.
# 1 = Ki below 500 nM (exclusive); 0 = Ki at/above 500 nM

Check out these entries, answers already filled in.
Molecule	Group Label
CCS(=O)(=O)Nc1cccc(C(=C2CCCCC2)c2c[nH]cn2)c1	1
C=C(c1cccc(NS(=O)(=O)CC)c1)c1c[nH]cn1	0
CCS(=O)(=O)Nc1cccc(Cc2c[nH]cn2)c1C.O=C(O)/C=C\C(=O)O [Example 29, maleate]	0
CS(=O)(=O)Nc1cccc(Cc2c[nH]cn2)c1.O=C(O)/C=C\C(=O)O [Example 21, maleate]	1
Cc1c(Cc2c[nH]cn2)cccc1NS(C)(=O)=O.O=C(O)/C=C\C(=O)O [Example 28, maleate]	0
CC(c1cccc(NS(C)(=O)=O)c1)c1c[nH]cn1.O=C(O)/C=C\C(=O)O (stereo not drawn) [Example 31, maleate]	0

[in] For this molecule, is Ki lower than 500 nM? CCS(=O)(=O)Nc1cccc(C(C)c2c[nH]cn2)c1 (stereo not drawn) [Example 37, maleate]
[out] 1

[in] # check: Ki < 500 nM for CS(=O)(=O)Nc1cc(Cc2c[nH]cn2)ccc1O [Example 11, hydrochloride]
[out] 1

[in] Hi there! Is Ki for CCS(=O)(=O)Nc1ccc(Cl)c2c1CCCC2c1c[nH]cn1 (stereo not drawn) [Example 42, maleate] below 500 nM, do you know?
[out] 0

###

Molecular target: α1d (rat receptor expressed in mouse fibroblasts) (Rattus norvegicus)
Construct: expressed in transfected cells; host or cells: mouse fibroblasts
Sequence (P23944 1-561): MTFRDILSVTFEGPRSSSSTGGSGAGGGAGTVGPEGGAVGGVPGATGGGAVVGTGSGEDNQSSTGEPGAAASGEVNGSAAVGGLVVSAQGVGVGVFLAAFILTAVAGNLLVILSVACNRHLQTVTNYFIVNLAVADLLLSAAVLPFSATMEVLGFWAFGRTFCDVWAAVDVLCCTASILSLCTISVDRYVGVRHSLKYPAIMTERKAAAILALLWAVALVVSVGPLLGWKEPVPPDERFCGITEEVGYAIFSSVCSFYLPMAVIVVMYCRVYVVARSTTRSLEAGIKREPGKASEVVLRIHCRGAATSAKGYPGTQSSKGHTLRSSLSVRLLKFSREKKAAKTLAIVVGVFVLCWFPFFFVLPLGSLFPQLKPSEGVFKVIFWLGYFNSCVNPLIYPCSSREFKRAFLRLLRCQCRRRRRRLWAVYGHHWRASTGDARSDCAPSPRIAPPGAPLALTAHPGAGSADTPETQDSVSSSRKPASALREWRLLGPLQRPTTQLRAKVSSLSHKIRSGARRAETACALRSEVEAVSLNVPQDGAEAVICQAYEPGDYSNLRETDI
Experiment: Radioligand binding with [3H]-prazosin, α1d
Conditions: rat receptor expressed in mouse fibroblasts, [3H]-prazosin; read-out: Radioligand Binding Ki α1d (Rat)
# note: boundary value 3000 nM maps to No; Ki below it maps to Yes

[in] For this molecule, is Ki lower than 3000 nM? CCS(=O)(=O)Nc1cccc(Cc2c[nH]cn2)c1.O=C(O)/C=C\C(=O)O [Example 30, maleate]
[out] Yes

[in] In plain terms, does Cn1cnc(S(=O)(=O)Nc2cccc3c2CCCC3c2cnc[nH]2)c1 (stereo not shown) [Example 66] come in under 3000 nM for Ki?
[out] Yes

[in] Please indicate whether the reported Ki of O=C(O)C=CC(=O)O.O=S(=O)(Nc1cccc2c1CCCC2c1c[nH]cn1)C1CC1 (stereo not shown) [Example 27, maleate] is strictly below 3000 nM.
[out] Yes

[in] Decide: Ki of COc1ccc(S(=O)(=O)Nc2cccc3c2CCCC3c2cnc[nH]2)cc1 (stereo not shown) [Example 71] strictly below 3000 nM?
[out] Yes

[in] Does the reported Ki of the following molecule sit strictly below 3000 nM? O=S(=O)(Nc1cccc2c1CCCC2c1cnc[nH]1)c1ccc(Cl)s1 (stereo not shown) [Example 72]
[out] Yes

[in] Consider CCS(=O)(=O)Nc1cccc2c1CCCC2c1c[nH]cn1.O=C(O)/C=C\C(=O)O (single isomer, unassigned; (-)) [Example 34, maleate] . Does its Ki lie strictly below 3000 nM?
[out] Yes

[in] For CCS(=O)(=O)Nc1cccc2c1CCCC2c1c[nH]cn1.O=C(O)/C=C\C(=O)O (single isomer, unassigned; (+)) [Example 33, maleate] , is the recorded Ki below the cut-off of 3000 nM?
[out] Yes

Entry source: patent US6503935B1
